assay: Solubility of the compound at pH 2 buffer; assay type: physicochemical

compound structure string	solubility
C[C@@H]1CN(c2ccc3c(=O)n(-c4ccc(Cl)c5c(NS(C)(=O)=O)nn(C)c45)c([C@H](Cc4cc(F)cc(F)c4)NC(=O)Cn4nc(C(F)F)c5c4C(F)(F)[C@@H]4C[C@H]54)nc3c2)C[C@H](C)O1	< 1 µg/mL

----------
experiment: Half life in Wistar Han rat plasma at 20 mg/kg, SC and measured after 21 days by LC-MS/MS analysis; type: ADME, organism-based; conditions: time 21 day

compound structure string	half-life
C[C@@H]1CN(c2ccc3c(=O)n(-c4ccc(Cl)c5c(NS(C)(=O)=O)nn(C)c45)c([C@H](Cc4cc(F)cc(F)c4)NC(=O)Cn4nc(C(F)F)c5c4C(F)(F)[C@@H]4C[C@H]54)nc3c2)C[C@H](C)O1	39 h

----------
experiment: Solubility of the compound in FaSSGF at pH 1.6; type: physicochemical
readout: solubility

compound structure string	result
C[C@@H]1CN(c2ccc3c(=O)n(-c4ccc(Cl)c5c(NS(C)(=O)=O)nn(C)c45)c([C@H](Cc4cc(F)cc(F)c4)NC(=O)Cn4nc(C(F)F)c5c4C(F)(F)[C@@H]4C[C@H]54)nc3c2)C[C@H](C)O1	< 1 µg/mL

----------
assay: Cmax in female Beagle dog at 100 mg/kg, po QD and measured after 1 day by LC-MS/MS analysis; format: ADME, organism-based, Canis lupus familiaris; design: dose 100 mg/kg, time 1 day, route po; settings: in vivo

compound structure string	Cmax / ng/mL
C[C@@H]1CN(c2ccc3c(=O)n(-c4ccc(Cl)c5c(NS(C)(=O)=O)nn(C)c45)c([C@H](Cc4cc(F)cc(F)c4)NC(=O)Cn4nc(C(F)F)c5c4C(F)(F)[C@@H]4C[C@H]54)nc3c2)C[C@H](C)O1	344

----------
assay: Clearance in Sprague-Dawley rat at 1 mg/kg, iv and measured upto 96 hrs by LC-MS/MS analysis; format: ADME, organism-based; conditions: in vivo
Entry class follows clearance: lower bin = under 10 mL/min/kg, middle bin = from 10 mL/min/kg up to 30 mL/min/kg, upper bin = 30 mL/min/kg and over

molecule	class
Cn1nc(NS(C)(=O)=O)c2c(Cl)ccc(-n3c([C@H](Cc4cc(F)cc(F)c4)NC(=O)Cn4nc(C(F)F)c5c4C(F)(F)[C@@H]4C[C@H]54)nc4cc(N5CCOCC5)ccc4c3=O)c21	middle bin
COc1ccc2c(=O)n(-c3ccc(Cl)c4c(NS(C)(=O)=O)nn(C)c34)c([C@H](Cc3cc(F)cc(F)c3)NC(=O)Cn3nc(C(F)F)c4c3C(F)(F)[C@@H]3C[C@H]43)nc2c1 (stereo in doubt; 12b)	lower bin
Cn1nc(NS(C)(=O)=O)c2c(Cl)ccc(-n3c([C@H](Cc4cc(F)cc(F)c4)NC(=O)Cn4nc(C(F)F)c5c4C(F)(F)[C@@H]4C[C@H]54)nc4cc(C(C)(C)C)ccc4c3=O)c21	middle bin
Cn1nc(NS(C)(=O)=O)c2c(Cl)ccc(-n3c([C@H](Cc4cc(F)cc(F)c4)NC(=O)Cn4nc(C(F)F)c5c4C(F)(F)[C@@H]4C[C@H]54)nc4cc(C(C)(F)F)ccc4c3=O)c21	lower bin
Cn1nc(NS(C)(=O)=O)c2c(Cl)ccc(-n3c([C@H](Cc4cc(F)cc(F)c4)NC(=O)Cn4nc(C(F)F)c5c4C(F)(F)[C@@H]4C[C@H]54)nc4cc(N5CCOC(C)(C)C5)ccc4c3=O)c21	lower bin
Cn1nc(NS(C)(=O)=O)c2c(Cl)ccc(-n3c([C@H](Cc4cc(F)cc(F)c4)NC(=O)Cn4nc(C(F)F)c5c4C(F)(F)[C@@H]4C[C@H]54)nc4cc(S(C)(=O)=O)ccc4c3=O)c21	upper bin
Cn1nc(NS(C)(=O)=O)c2c(Cl)ccc(-n3c([C@H](Cc4cc(F)cc(F)c4)NC(=O)Cn4nc(C(F)F)c5c4C(F)(F)[C@@H]4C[C@H]54)nc4cc(C#N)ccc4c3=O)c21	upper bin
Cn1nc(NS(C)(=O)=O)c2c(Cl)ccc(-n3c([C@H](Cc4cc(F)cc(F)c4)NC(=O)Cn4nc(C(F)F)c5c4C(F)(F)[C@@H]4C[C@H]54)nc4cc(N5CCCCC5)ccc4c3=O)c21	middle bin
COc1cc(OC)c2c(=O)n(-c3ccc(Cl)c4c(NS(C)(=O)=O)nn(C)c34)c([C@H](Cc3cc(F)cc(F)c3)NC(=O)Cn3nc(C(F)F)c4c3C(F)(F)[C@@H]3C[C@H]43)nc2c1	upper bin
Cn1nc(NS(C)(=O)=O)c2c(Cl)ccc(-n3c([C@H](Cc4cc(F)cc(F)c4)NC(=O)Cn4nc(C(F)F)c5c4C(F)(F)[C@@H]4C[C@H]54)nc4ccc(F)cc4c3=O)c21	middle bin
Cn1nc(NS(C)(=O)=O)c2c(Cl)ccc(-n3c([C@H](Cc4cc(F)cc(F)c4)NC(=O)Cn4nc(C(F)F)c5c4C(F)(F)[C@@H]4C[C@H]54)nc4cc(C5CC5)ccc4c3=O)c21	lower bin
CN1CCN(c2ccc3c(=O)n(-c4ccc(Cl)c5c(NS(C)(=O)=O)nn(C)c45)c([C@H](Cc4cc(F)cc(F)c4)NC(=O)Cn4nc(C(F)F)c5c4C(F)(F)[C@@H]4C[C@H]54)nc3c2)CC1	upper bin
Cn1nc(NS(C)(=O)=O)c2c(Cl)ccc(-n3c([C@H](Cc4cc(F)cc(F)c4)NC(=O)Cn4nc(C(F)F)c5c4C(F)(F)[C@@H]4C[C@H]54)nc4cc(C(C)(C)O)ccc4c3=O)c21	middle bin
Cn1nc(NS(C)(=O)=O)c2c(Cl)ccc(-n3c([C@H](Cc4cc(F)cc(F)c4)NC(=O)Cn4nc(C(F)F)c5c4C(F)(F)[C@@H]4C[C@H]54)nc4cc(N5CC6(COC6)C5)ccc4c3=O)c21	middle bin
